The origin of these recorded values is ChEMBL document CHEMBL1147132.

Measured solubility accompanies every entry in the list below.
# protocol-summary: Solubility in 5% mannitol
# Assay type: physicochemical
Give the value, in units of mg/mL, as a plain number.

[
  {
    "smiles-representation": "CS[C@H](NC(=O)[C@@H](Cc1cccnc1)NC(=O)[C@@H](Cc1ccc(Cl)cc1)NC(=O)[C@@H](Cc1ccc2ccccc2c1)NC(C)=O)C(=O)N[C@@H](Cc1ccc(NC(C)=O)cc1)C(=O)N[C@H](Cc1ccc(NC(C)=O)cc1)C(=O)N[C@@H](CC(C)C)C(=O)N[C@@H](CCCCNC(C)C)C(=O)N1CCC[C@H]1C(=O)N[C@H](C)C(N)=O",
    "display-unit": "mg/mL",
    "solubility": 50
  }
]

Turning now to a further compound:
Dear colleague, I am looking for the recorded solubility of the following compound: CC(=O)Nc1ccc(C[C@H](NC(=O)[C@H](CO)NC(=O)[C@@H](Cc2cccnc2)NC(=O)[C@@H](Cc2ccc(Cl)cc2)NC(=O)[C@@H](Cc2ccc3ccccc3c2)NC(C)=O)C(=O)N[C@H](Cc2ccc(NC(C)=O)cc2)C(=O)N[C@@H](SC(C)C)C(=O)N[C@@H](CCCCNC(C)C)C(=O)N2CCC[C@H]2C(=O)N[C@H](C)C(N)=O)cc1
50

###

# protocol-summary: Solubility in 5% mannitol
# Type: physicochemical
quantity-kind: solubility (mg/mL)
Write the number in mg/mL without appending the unit.

Some solved cases for reference:
[
  {
    "smiles-representation": "CS[C@H](NC(=O)[C@@H]1CCCN1C(=O)[C@H](CCCCNC(C)C)NC(=O)[C@H](CC(C)C)NC(=O)[C@@H](Cc1ccc(NC(C)=O)cc1)NC(=O)[C@H](Cc1ccc(NC(C)=O)cc1)NC(=O)[C@H](CO)NC(=O)[C@@H](Cc1cccnc1)NC(=O)[C@@H](Cc1ccc(Cl)cc1)NC(=O)[C@@H](Cc1ccc2ccccc2c1)NC(C)=O)C(N)=O",
    "display-unit": "mg/mL",
    "solubility": 50
  },
  {
    "smiles-representation": "CS[C@@H](NC(=O)[C@@H]1CCCN1C(=O)[C@H](CCCCNC(C)C)NC(=O)[C@H](CC(C)C)NC(=O)[C@@H](Cc1ccc(NC(C)=O)cc1)NC(=O)[C@H](Cc1ccc(NC(C)=O)cc1)NC(=O)[C@H](CO)NC(=O)[C@@H](Cc1cccnc1)NC(=O)[C@@H](Cc1ccc(Cl)cc1)NC(=O)[C@@H](Cc1ccc2ccccc2c1)NC(C)=O)C(N)=O",
    "display-unit": "mg/mL",
    "solubility": 50
  }
]

Proceed to the following item.
What does the data say about its solubility? Entry: CC(=O)Nc1ccc(C[C@H](NC(=O)[C@H](CO)NC(=O)[C@@H](CCC(N)=O)NC(=O)[C@@H](Cc2ccc(Cl)cc2)NC(=O)[C@@H](Cc2ccc3ccccc3c2)NC(C)=O)C(=O)N[C@H](Cc2ccc(NC(C)=O)cc2)C(=O)N[C@@H](SC(C)C)C(=O)N[C@@H](CCCCNC(C)C)C(=O)N2CCC[C@H]2C(=O)N[C@H](C)C(N)=O)cc1
50
